Target: FGFR2 (Homo sapiens, UniProt P21802)
Sequence (P21802 22-821): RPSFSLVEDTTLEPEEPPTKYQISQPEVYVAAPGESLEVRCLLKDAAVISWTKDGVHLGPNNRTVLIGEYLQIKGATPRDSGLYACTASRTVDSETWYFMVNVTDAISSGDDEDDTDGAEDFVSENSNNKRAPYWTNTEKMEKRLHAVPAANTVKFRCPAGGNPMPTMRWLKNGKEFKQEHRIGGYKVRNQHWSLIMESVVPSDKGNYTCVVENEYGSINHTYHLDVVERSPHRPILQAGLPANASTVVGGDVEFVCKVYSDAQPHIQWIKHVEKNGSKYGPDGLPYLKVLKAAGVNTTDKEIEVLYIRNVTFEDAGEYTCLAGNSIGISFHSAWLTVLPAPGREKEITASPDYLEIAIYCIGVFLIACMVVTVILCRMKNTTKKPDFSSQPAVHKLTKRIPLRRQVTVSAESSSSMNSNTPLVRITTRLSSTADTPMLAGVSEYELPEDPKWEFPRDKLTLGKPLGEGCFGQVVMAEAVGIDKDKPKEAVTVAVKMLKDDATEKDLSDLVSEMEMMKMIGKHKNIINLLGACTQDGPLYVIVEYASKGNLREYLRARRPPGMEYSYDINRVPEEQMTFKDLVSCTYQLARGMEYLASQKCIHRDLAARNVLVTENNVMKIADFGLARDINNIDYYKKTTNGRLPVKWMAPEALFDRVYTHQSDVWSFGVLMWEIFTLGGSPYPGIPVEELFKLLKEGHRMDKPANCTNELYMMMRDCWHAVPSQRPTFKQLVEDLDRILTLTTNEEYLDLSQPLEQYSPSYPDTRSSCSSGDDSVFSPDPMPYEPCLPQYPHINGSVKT
Assay: Kinase inhibition
Type: biochemical
Settings: read-out: IC50 kinase inhibition, FGFR2
recorded.metric: IC50 (nM)

>>> reported_result("COc1ccc(CN2C3CC2CN(c2ccc(-c4cc(OCC(C)(C)O)cn5ncc(C#N)c45)cn2)C3)cn1")
34
>>> reported_result("CO[C@]1(C(=O)N[C@@H](C)c2ccc(-n3cc(F)cn3)nc2)CC[C@H](c2nc(C)cc(Nc3cc(C)[nH]n3)n2)CC1")
35

###

Biological target: FGFR2 (Homo sapiens)
Test: Kinase inhibition
Assay type: biochemical
pIC50: −log10 of the molar value.
recorded.metric: pIC50

>>> reported_result("COCc1ccc(NC(=O)c2c(C#CCN3CCOCC3)n(C3(C)CC3)c3ncnc(N)c23)cc1")
5.73

###

Test: Rat PK after oral and IV administration
Assay type: in vivo
Conditions: Han Wistar, plasma, oral, 30 mg/kg, glucose 5%, read-out: VSS/F
recorded.metric: Vd/F (L/kg)

>>> reported_result("COCc1ccc(NC(=O)c2c(C#CCN3CCOCC3)n(C3(C)CC3)c3ncnc(N)c23)cc1")
7.5

###

Biological target: FLT1 (Homo sapiens, UniProt P17948)
Sequence (P17948 27-1338): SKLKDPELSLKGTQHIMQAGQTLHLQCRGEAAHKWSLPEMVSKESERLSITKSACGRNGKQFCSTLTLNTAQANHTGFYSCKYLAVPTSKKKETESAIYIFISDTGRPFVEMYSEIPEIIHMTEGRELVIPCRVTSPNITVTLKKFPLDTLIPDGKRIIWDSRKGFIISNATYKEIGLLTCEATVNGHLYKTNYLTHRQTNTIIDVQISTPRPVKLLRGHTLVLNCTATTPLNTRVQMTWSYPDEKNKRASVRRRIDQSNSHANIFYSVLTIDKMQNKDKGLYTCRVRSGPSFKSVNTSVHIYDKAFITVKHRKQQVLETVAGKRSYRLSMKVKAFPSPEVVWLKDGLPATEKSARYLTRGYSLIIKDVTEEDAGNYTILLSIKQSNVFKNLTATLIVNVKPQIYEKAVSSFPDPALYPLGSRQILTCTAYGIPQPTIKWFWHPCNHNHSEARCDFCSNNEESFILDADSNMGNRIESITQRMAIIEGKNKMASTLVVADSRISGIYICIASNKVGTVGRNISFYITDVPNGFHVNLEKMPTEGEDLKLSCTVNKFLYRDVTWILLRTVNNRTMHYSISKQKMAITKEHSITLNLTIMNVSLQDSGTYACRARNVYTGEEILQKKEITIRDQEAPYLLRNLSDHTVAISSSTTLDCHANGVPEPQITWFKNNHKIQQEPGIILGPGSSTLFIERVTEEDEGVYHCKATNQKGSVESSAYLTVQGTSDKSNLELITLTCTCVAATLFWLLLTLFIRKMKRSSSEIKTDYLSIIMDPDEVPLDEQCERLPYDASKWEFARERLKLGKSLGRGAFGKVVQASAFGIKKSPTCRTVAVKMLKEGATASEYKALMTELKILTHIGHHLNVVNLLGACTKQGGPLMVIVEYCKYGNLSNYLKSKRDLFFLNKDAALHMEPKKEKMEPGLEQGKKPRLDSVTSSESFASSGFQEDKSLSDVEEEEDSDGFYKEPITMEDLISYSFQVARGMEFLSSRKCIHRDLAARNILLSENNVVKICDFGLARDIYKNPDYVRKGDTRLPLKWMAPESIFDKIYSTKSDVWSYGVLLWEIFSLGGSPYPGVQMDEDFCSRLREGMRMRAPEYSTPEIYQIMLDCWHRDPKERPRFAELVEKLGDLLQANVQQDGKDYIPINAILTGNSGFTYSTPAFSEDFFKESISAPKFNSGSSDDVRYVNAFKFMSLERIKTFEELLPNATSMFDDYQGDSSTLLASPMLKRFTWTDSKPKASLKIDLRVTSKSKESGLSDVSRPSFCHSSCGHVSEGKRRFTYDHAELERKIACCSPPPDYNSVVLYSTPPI
Assay: Kinase inhibition
Assay type: biochemical
recorded.metric: IC50 (nM)

>>> reported_result("COCc1ccc(NC(=O)c2c(C#CCN3CCOCC3)n(C3(C)CC3)c3ncnc(N)c23)cc1")
2960

###

Assay: Rat PK after oral and IV administration
Assay type: in vivo
Conditions: Han Wistar, plasma, oral, 30 mg/kg, glucose 5%, read-out: CL/F
recorded.metric: CL/F (mL/min/kg)

>>> reported_result("COCc1ccc(NC(=O)c2c(C#CCN3CCOCC3)n(C3(C)CC3)c3ncnc(N)c23)cc1 [HM06/TAS0953]")
32

###

Biological target: PDGFRα (Homo sapiens, UniProt P16234)
Sequence (P16234 24-1089): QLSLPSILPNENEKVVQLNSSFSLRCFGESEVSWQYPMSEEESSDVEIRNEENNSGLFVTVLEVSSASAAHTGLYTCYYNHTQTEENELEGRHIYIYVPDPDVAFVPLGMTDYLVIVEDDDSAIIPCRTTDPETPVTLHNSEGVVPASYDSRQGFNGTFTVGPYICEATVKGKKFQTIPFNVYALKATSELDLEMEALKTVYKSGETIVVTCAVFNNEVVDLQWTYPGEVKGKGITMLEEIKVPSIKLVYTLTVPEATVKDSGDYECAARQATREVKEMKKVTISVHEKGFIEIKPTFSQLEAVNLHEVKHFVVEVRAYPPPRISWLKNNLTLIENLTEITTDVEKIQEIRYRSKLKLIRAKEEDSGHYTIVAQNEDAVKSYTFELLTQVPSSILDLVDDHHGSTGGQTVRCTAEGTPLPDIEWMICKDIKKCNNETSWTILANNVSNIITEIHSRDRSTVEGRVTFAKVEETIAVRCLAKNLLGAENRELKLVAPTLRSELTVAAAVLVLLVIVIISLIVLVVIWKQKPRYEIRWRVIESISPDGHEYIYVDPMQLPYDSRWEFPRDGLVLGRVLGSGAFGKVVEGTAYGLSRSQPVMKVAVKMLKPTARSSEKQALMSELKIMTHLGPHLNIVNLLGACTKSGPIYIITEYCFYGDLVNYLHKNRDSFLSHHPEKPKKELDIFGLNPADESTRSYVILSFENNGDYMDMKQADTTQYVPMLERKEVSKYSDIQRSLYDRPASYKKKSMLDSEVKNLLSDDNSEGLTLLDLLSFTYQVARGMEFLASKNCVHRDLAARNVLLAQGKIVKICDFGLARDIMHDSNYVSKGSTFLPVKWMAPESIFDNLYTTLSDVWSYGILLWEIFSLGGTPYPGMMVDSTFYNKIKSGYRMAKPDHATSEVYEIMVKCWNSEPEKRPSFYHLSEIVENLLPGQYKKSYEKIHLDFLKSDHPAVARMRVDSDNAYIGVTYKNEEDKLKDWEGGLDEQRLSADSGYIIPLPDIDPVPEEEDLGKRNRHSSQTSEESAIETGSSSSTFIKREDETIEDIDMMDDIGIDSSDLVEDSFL
Assay: Kinase inhibition
Assay type: biochemical
Conditions: read-out: IC50 kinase inhibition, PDGFRα
Reported IC50 values for a set of molecules
recorded.metric: IC50 (nM)

>>> reported_result("CO[C@]1(C(=O)N[C@@H](C)c2ccc(-n3cc(F)cn3)nc2)CC[C@H](c2nc(C)cc(Nc3cc(C)[nH]n3)n2)CC1")
12
>>> reported_result("COc1ccc(CN2C3CC2CN(c2ccc(-c4cc(OCC(C)(C)O)cn5ncc(C#N)c45)cn2)C3)cn1")
44

###

Target: DDR2 (Homo sapiens, UniProt Q16832)
Sequence (Q16832 22-855): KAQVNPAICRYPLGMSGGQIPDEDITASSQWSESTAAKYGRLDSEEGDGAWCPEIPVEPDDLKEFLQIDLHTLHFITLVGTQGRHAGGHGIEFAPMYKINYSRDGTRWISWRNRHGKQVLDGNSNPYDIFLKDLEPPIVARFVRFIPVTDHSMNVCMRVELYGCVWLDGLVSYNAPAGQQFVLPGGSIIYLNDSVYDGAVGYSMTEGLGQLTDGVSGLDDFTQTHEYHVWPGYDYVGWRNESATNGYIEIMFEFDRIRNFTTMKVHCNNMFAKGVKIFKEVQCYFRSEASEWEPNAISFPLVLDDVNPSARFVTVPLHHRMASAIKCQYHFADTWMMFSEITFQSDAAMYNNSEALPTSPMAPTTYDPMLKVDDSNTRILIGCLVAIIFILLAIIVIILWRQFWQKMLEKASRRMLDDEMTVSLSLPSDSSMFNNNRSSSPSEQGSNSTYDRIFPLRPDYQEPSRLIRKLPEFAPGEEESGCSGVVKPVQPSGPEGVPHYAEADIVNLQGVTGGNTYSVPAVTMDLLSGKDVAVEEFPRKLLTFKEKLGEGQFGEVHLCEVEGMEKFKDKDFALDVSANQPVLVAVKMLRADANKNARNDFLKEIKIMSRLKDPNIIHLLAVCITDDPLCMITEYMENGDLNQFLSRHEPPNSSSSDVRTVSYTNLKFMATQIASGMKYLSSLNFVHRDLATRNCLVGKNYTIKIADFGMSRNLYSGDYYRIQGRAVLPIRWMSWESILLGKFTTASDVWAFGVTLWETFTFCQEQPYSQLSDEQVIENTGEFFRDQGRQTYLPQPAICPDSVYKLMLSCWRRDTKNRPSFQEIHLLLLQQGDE
Assay: Kinase inhibition
Type: biochemical
pIC50: −log10 of the molar value.
recorded.metric: pIC50

>>> reported_result("COCc1ccc(NC(=O)c2c(C#CCN3CCOCC3)n(C3(C)CC3)c3ncnc(N)c23)cc1 [HM06/TAS0953]")
"< 5.52"
